biological target: BRAF G469A (Homo sapiens, UniProt P15056, G469A); construct: Horizon Discovery (HCT-116 BRAF−/− cells); host or cells: HCT-116 BRAF−/− cells, clone 34, lentiviral transduction; assay: BRAF HiBiT degradation assay, C-terminal HiBiT-tagged BRAF G469A overexpressed in HCT-116 BRAF−/− cells (clone 34), Nano-Glo HiBiT Lytic assay; format: cell-based; conditions: HCT-116; Class 2; BRAF G469A; percentage protein degraded at maximal compound effect relative to DMSO
Sequence (P15056 whole entry G469A): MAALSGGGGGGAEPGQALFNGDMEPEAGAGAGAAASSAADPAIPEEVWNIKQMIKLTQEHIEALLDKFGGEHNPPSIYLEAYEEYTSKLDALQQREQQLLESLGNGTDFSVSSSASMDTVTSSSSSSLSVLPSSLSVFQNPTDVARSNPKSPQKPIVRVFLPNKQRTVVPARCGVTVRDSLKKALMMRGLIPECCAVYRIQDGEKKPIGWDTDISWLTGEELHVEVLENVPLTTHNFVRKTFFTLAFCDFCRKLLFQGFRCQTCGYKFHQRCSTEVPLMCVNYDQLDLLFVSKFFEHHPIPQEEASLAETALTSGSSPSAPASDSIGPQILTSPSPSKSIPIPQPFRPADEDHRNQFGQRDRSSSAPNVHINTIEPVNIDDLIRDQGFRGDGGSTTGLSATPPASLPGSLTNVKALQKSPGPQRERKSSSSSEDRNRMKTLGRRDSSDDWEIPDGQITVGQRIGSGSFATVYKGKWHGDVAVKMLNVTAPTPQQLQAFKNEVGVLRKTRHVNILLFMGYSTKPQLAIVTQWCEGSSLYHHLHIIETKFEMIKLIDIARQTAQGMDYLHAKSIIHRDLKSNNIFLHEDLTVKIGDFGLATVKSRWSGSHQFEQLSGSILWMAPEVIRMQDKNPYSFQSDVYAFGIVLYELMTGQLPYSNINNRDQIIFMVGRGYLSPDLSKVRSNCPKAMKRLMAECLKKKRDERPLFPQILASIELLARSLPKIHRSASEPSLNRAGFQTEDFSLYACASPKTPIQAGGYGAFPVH
RECORDED_ENDPOINT: Dmax

>>> measured_value("CCCS(=O)(=O)Nc1cccc(-c2nc(C(C)(C)C)sc2-c2ccnc(Nc3cccc(OC4CCN(C(=O)CN5CCC(c6ccc(NC7CCC(=O)NC7=O)cc6)CC5)CC4)c3)n2)c1F (racemic) [Compound 96]")
"30 to 70%"
>>> measured_value("CCCS(=O)(=O)Nc1cccc(-c2nc(C(C)(C)C)sc2-c2ccnc(Nc3cnn(CC4CCN(C[C@H]5CC[C@H](Oc6ccc(C7CCC(=O)NC7=O)cc6)CC5)CC4)c3)n2)c1F (mixture of isomers) [Compound 84]")
"< 30%"
>>> measured_value("CCCS(=O)(=O)Nc1cccc(-c2nc(C3CCC4(CC3)CCN(C(=O)C3CCN(c5ccc6c(c5)C(=O)N(C5CCC(=O)NC5=O)C6=O)CC3)CC4)sc2-c2ccnc(N)n2)c1F (racemic) [Compound 245]")
"30 to 70%"
>>> measured_value("CCN(C)S(=O)(=O)Nc1cccc(-c2nc(C(C)(C)C)sc2-c2ccnc(Nc3ccc(N4CCN(C(=O)[C@H]5CC[C@H](CN6CCc7cc(C8CCC(=O)NC8=O)ccc7C6)CC5)CC4)cn3)n2)c1F (mixture of isomers) [Compound 125]")
"30 to 70%"
>>> measured_value("CCCS(=O)(=O)Nc1cccc(-c2nc(C(C)(C)C)sc2-c2ccnc(Nc3cccc(OC4CCN(C(=O)C[C@@H]5CCN(c6ccc(C7CCC(=O)NC7=O)cc6)C5)CC4)c3)n2)c1F (mixture of isomers) [Compound 92]")
"< 30%"
>>> measured_value("CCN(C)S(=O)(=O)Nc1cccc(-c2nc(C(C)(C)C)sc2-c2ccnc(Nc3ccc(N4CCN(CC5CCN(c6ccc([C@H]7CCC(=O)NC7=O)cn6)CC5)CC4)cn3)n2)c1F [Compound 29]")
"30 to 70%"
>>> measured_value("CCCS(=O)(=O)Nc1cccc(-c2nc(C(C)(C)C)sc2-c2ccnc(Nc3cnn(CC4CCN(C(=O)[C@@H]5CCN(c6ccc(C7CCC(=O)NC7=O)cn6)C5)CC4)c3)n2)c1F (mixture of isomers) [Compound 114]")
"< 30%"
>>> measured_value("CCN(C)S(=O)(=O)Nc1cccc(-c2nc(C(C)(C)C)sc2-c2ccnc(Nc3ccc(N4CCN(CC5CCN(c6ccc([C@H]7CCC(=O)NC7=O)cc6)CC5)CC4)cn3)n2)c1F [Compound 128]")
"< 30%"
>>> measured_value("CCCS(=O)(=O)Nc1cccc(-c2nc(-c3ccc(C4CCN(CC5CCN(c6ccc([C@@H]7CCC(=O)NC7=O)cc6)CC5)CC4)cc3)sc2-c2ccnc(N)n2)c1F [Compound 192]")
"< 30%"
>>> measured_value("CCCS(=O)(=O)Nc1cccc(-c2nc(C(C)(C)C)sc2-c2ccnc(Nc3ccc(N4CCN(C(=O)C5CCN(c6ccc(C7CCC(=O)NC7=O)cc6)CC5)CC4)cc3)n2)c1F (racemic) [Compound 38]")
"< 30%"

----------
Biological target: BRAF G466V (Homo sapiens, UniProt P15056, G466V)
Construct: Horizon Discovery (HCT-116 BRAF−/− cells); host or cells: HCT-116 BRAF−/− cells, clone 8, lentiviral transduction
Sequence (P15056 whole entry G466V): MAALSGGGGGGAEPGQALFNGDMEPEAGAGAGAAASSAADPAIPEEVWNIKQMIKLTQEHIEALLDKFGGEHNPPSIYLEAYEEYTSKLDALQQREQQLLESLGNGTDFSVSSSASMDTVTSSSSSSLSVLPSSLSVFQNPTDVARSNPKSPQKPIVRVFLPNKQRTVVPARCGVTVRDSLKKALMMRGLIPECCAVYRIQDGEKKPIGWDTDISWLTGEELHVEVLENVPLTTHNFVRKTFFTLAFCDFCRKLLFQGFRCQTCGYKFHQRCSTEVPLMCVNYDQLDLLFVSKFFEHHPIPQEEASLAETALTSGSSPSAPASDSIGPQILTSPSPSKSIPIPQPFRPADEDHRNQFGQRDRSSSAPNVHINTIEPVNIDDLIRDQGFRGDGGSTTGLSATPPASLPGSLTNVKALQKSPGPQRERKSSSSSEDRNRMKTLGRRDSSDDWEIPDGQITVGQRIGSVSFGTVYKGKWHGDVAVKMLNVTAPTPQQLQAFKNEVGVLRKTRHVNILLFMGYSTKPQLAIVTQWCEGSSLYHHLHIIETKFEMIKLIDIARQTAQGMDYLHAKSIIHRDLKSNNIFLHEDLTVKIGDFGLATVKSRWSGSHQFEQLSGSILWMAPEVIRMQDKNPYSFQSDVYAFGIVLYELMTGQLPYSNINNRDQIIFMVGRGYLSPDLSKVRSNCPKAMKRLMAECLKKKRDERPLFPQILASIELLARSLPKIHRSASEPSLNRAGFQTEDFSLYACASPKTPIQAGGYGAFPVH
Test: BRAF HiBiT degradation assay, C-terminal HiBiT-tagged BRAF G466V overexpressed in HCT-116 BRAF−/− cells (clone 8), Nano-Glo HiBiT Lytic assay
Assay type: cell-based
Conditions: HCT-116; BRAF G466V; percentage protein degraded at maximal compound effect relative to DMSO
Experimental: An A375 cell line expressing a homozygous V600E mutation was purchased from ATCC (Manassas, VA, USA). […] HiBiT signal was measured by a Nano-Glo HiBiT Lytic assay (Promega cat. no. N3050). […] Luminesce units (LU) were read on an EnVision plate reader 2105 (Perkin Elmer). Percent protein remaining and viability remaining per sample were calculated as follows: […]
Catalogue of compounds with associated Dmax
RECORDED_ENDPOINT: Dmax

>>> measured_value("CCCS(=O)(=O)Nc1cccc(-c2cn(C3CCN(C(=O)C4CCN(C(=O)C5CCN(c6ccc(C7CCC(=O)NC7=O)cn6)CC5)CC4)CC3)nc2-c2ccncc2)c1F (racemic)")
"30 to 70%"
>>> measured_value("CCCS(=O)(=O)Nc1cccc(-c2nc(C(C)(C)C)sc2-c2ccnc(Nc3ccc(C4CCN(CC[C@H]5CCN(c6ccc(C7CCC(=O)NC7=O)cn6)C5)CC4)cc3)n2)c1F (mixture of isomers)")
"30 to 70%"
>>> measured_value("CCN(C)S(=O)(=O)Nc1cccc(-c2nc(C(C)(C)C)sc2-c2ccnc(Nc3ccc(N4CCN(CC5CCN(c6ccc([C@@H]7CCC(=O)NC7=O)cc6)CC5)CC4)cn3)n2)c1F")
"30 to 70%"
>>> measured_value("CCCS(=O)(=O)Nc1cccc(-c2nc(-c3ccc(C4CCN(CC5CCN(c6ccc([C@@H]7CCC(=O)NC7=O)cc6)CC5)CC4)cc3)sc2-c2ccnc(N)n2)c1F")
"30 to 70%"
>>> measured_value("CCCS(=O)(=O)Nc1cccc(-c2nc(C(C)(C)C)sc2-c2ccnc(Nc3cnn(CC4CCN(C(=O)CN5CCc6cc(C7CCC(=O)NC7=O)ccc6C5)CC4)c3)n2)c1F (racemic)")
"< 30%"
>>> measured_value("CCCS(=O)(=O)Nc1cccc(-c2nc(C(C)(C)C)sc2-c2ccnc(Nc3ccc(C4CCN(CC5CCN(c6ccc(C(=O)NC7CCC(=O)NC7=O)cc6)CC5)CC4)cc3)n2)c1F (racemic)")
"< 30%"
>>> measured_value("CCCS(=O)(=O)Nc1cccc(-c2nc(C(C)(C)C)sc2-c2ccnc(Nc3ccc(N4CCN(C(=O)C5CCN(c6ccc(C7CCC(=O)NC7=O)cc6)CC5)CC4)c(F)c3)n2)c1F (racemic)")
"30 to 70%"
>>> measured_value("CCCS(=O)(=O)Nc1cccc(-c2nc(C3CCN(C(=O)CN4CCC5(CC4)CN(c4ccc6c(c4)C(=O)N(C4CCC(=O)NC4=O)C6=O)C5)CC3)sc2-c2ccnc(NC)n2)c1F (racemic)")
"30 to 70%"
>>> measured_value("CCCS(=O)(=O)Nc1cccc(-c2nc(C3CCC4(CC3)CN(C(=O)CCCCCc3ccc5c(c3)C(=O)N(C3CCC(=O)NC3=O)C5)C4)sc2-c2ccnc(N)n2)c1F (racemic)")
"30 to 70%"
>>> measured_value("CCCS(=O)(=O)Nc1cccc(-c2nc(C3CCN(C(=O)C4CCN(C(=O)C5CCN(c6ccc(C7CCC(=O)NC7=O)cn6)CC5)CC4)CC3)sc2-c2ccncc2)c1F (racemic)")
"30 to 70%"
>>> measured_value("CCN(C)S(=O)(=O)Nc1cccc(-c2nc(C)sc2-c2ccnc(Nc3ccc(N4CCN(CC5CCN(c6ccc([C@H]7CCC(=O)NC7=O)cc6)CC5)CC4)cn3)n2)c1F")
"30 to 70%"
>>> measured_value("CCN(C)S(=O)(=O)Nc1cccc(-c2nc(C(C)(C)C)sc2-c2ccnc(Nc3ccc(N4CCN(C(=O)CN5CCc6cc(C7CCC(=O)NC7=O)ccc6C5)CC4)c(F)c3)n2)c1F (racemic)")
"30 to 70%"

----------
target: BRAF V600E (Homo sapiens, UniProt P15056, V600E); construct: endogenous C-terminal HiBiT fusion tag on BRAF V600E allele; endogenous in cells; host or cells: A375 clone 1F10 (CRISPR-Cas9 knock-in of the HiBiT tag; parental A375 from ATCC); experiment: BRAF HiBiT degradation assay, C-terminal HiBiT-tagged BRAF V600E A375 cells (clone 1F10), Nano-Glo HiBiT Lytic assay; assay type: cell-based; conditions: A-375; A375 (BRAF V600E); percentage protein degraded at maximal compound effect relative to DMSO
Sequence (P15056 whole entry V600E, the tested form may be a part): as the sequence (P15056 whole entry G469A) above, with A469G, V600E counted along it
RECORDED_ENDPOINT: Dmax

>>> measured_value("CCCS(=O)(=O)Nc1cccc(-c2nc(C(C)(C)C)sc2-c2ccnc(Nc3ccc(N4CCN(C(=O)CN5CCc6cc(C7CCC(=O)NC7=O)ccc6C5)CC4)c(F)c3)n2)c1F (racemic)")
"> 70%"
>>> measured_value("CCCS(=O)(=O)Nc1cccc(-c2nc(C(C)(C)C)sc2-c2ccnc(Nc3cccc(C4CCN(C(=O)[C@@H]5CCN(c6ccc(C7CCC(=O)NC7=O)cn6)C5)CC4)c3)n2)c1F (mixture of isomers)")
"30 to 70%"
>>> measured_value("CCCS(=O)(=O)Nc1cccc(-c2nc(C)sc2-c2ccnc(Nc3ccc(N4CCN(CC5CCN(c6ccc([C@H]7CCC(=O)NC7=O)cc6)CC5)CC4)cn3)n2)c1F")
"> 70%"
>>> measured_value("CCCS(=O)(=O)Nc1cccc(-c2nc(C(C)(C)C)sc2-c2ccnc(Nc3cnn(C4CCN(CC[C@H]5CCN(c6ccc(C7CCC(=O)NC7=O)cn6)C5)CC4)c3)n2)c1F (mixture of isomers)")
"30 to 70%"
>>> measured_value("CCCS(=O)(=O)Nc1cccc(-c2cn(-c3ccc(N4CCN(CC5CCN(c6ccc(C7CCC(=O)NC7=O)c(F)c6)CC5)CC4)cc3)nc2-c2ccncc2)c1F (racemic)")
"> 70%"
